# Tested on: CP268
# Assay Details: qHTS profiling for inhibitors of Plasmodium falciparum proliferation (AID 504749); also: nearly all actives have a fitted effect of over 60% in size
# Test Context: P. falciparum in erythrocytes, SYBR Green DNA, 72 h; series mostly up to 12.8 µM
# Method: NIH National Institute of Allergy and Infectious Diseases [NIAID] NIH Chemical Genomics Center [NCGC] […] Because mature erythrocytes lack DNA, only Plasmodium-derived DNA is detected. NCGC Assay Protocol Summary: The SYBR Green viability assay was adapted from a method described previously (Plouffe et al., 2008). […] The following morning, fluorescence intensity at 485(14) nm excitation and 535(25) nm emission wavelengths was measured on an EnVision (Perkin Elmer) plate reader. […]
Results filed as inconclusive are left out. Calls of active or inactive are those of the source. Calls follow the shape of the dose curve; as a rule, active = well fitted inhibition curve with a large enough effect; inconclusive = small, poorly fitted or top-dose-only effect; inactive = flat fitted curve, though single readings scatter.
Classes used: 1.0 (active), 0.0 (inactive)

{"Molecule": "CCN[C@@H]1C[C@H](C)S(=O)(=O)c2sc(S(N)(=O)=O)cc21", "Label Value": 0.0}
{"Molecule": "CCN1C(=O)N[C@@H](c2ccccc2)C1=O", "Label Value": 0.0}
{"Molecule": "C[N+](C)(C)CC(O)CC(=O)O (stereo unspecified)", "Label Value": 0.0}
{"Molecule": "CC1(C)Oc2ccc(C#N)cc2[C@H](N2CCCC2=O)[C@H]1O", "Label Value": 0.0}
{"Molecule": "C[N+]1(C)CCC[C@@H](OC(=O)C(O)(c2ccccc2)c2ccccc2)C1", "Label Value": 0.0}
{"Molecule": "CC[C@H](NC(C)C)[C@H](O)c1ccc(O)c(O)c1", "Label Value": 0.0}
{"Molecule": "C[n+]1ccccc1/C=N\\O", "Label Value": 0.0}
{"Molecule": "CC(=O)N(CC(O)CN(C(C)=O)c1c(I)c(C(=O)NC[C@@H](O)CO)c(I)c(C(=O)NC[C@@H](O)CO)c1I)c1c(I)c(C(=O)NC[C@@H](O)CO)c(I)c(C(=O)NC[C@@H](O)CO)c1I", "Label Value": 0.0}
{"Molecule": "N[C@@H](CO)C(=O)NNCc1ccc(O)c(O)c1O", "Label Value": 0.0}
{"Molecule": "CO/N=C(\\C(=O)N[C@@H]1C(=O)N2C(C(=O)O)=C(COC(C)=O)CS[C@@H]12)c1csc(N)n1", "Label Value": 0.0}
{"Molecule": "CC1(C)S[C@@H]2[C@H](NC(=O)[C@H](C(=O)O)c3ccsc3)C(=O)N2[C@H]1C(=O)O", "Label Value": 0.0}
{"Molecule": "NC(N)=NC[C@@H]1COC2(CCCCC2)O1", "Label Value": 0.0}
{"Molecule": "CC[C@]1(C)CC(=O)NC1=O", "Label Value": 0.0}
{"Molecule": "CC1(C)O[C@@H]2C[C@H]3[C@H]4C[C@H](F)C5=CC(=O)C=C[C@@]5(C)[C@@H]4[C@H](O)C[C@]3(C)[C@]2(C(=O)CO)O1", "Label Value": 0.0}
{"Molecule": "O=c1[nH]c(=O)n([C@@H]2C[C@H](O)[C@H](CO)O2)cc1I", "Label Value": 0.0}
{"Molecule": "COCCc1ccc(OC[C@H](O)CNC(C)C)cc1", "Label Value": 0.0}
{"Molecule": "CCCN[C@@H](C)C(=O)Nc1c(C)csc1C(=O)OC", "Label Value": 0.0}
{"Molecule": "CCCN(CCC)C(=O)[C@@H](CCC(=O)O)NC(=O)c1ccccc1", "Label Value": 0.0}
{"Molecule": "CC(C)(C)NC[C@H](O)c1cc(O)cc(O)c1", "Label Value": 0.0}
{"Molecule": "CN1[C@@H]2CC[C@H]1CC(OC(=O)[C@@H](O)c1ccccc1)C2 (stereo partly specified)", "Label Value": 0.0}
{"Molecule": "CCN(CC)CCC[C@H](C)Nc1c2ccc(Cl)cc2nc2ccc(OC)cc12", "Label Value": 1.0}
